FYI, the data here is from ChEMBL document CHEMBL1159071.

- protocol.summary: Oral bioavailability in rat
- Type: ADME, organism-based
- run.parameters: in vivo
recorded.metric: bioavailability (%)
Report the value in % with no unit label.

Give its bioavailability value. Item: `Cc1ccc2oc(N3CCN4CCC3CC4)nc2n1`
73

* * *

- assayed.system: Neuronal acetylcholine receptor subunit alpha-7 (Homo sapiens, UniProt P36544)
- Sequence (P36544 whole entry): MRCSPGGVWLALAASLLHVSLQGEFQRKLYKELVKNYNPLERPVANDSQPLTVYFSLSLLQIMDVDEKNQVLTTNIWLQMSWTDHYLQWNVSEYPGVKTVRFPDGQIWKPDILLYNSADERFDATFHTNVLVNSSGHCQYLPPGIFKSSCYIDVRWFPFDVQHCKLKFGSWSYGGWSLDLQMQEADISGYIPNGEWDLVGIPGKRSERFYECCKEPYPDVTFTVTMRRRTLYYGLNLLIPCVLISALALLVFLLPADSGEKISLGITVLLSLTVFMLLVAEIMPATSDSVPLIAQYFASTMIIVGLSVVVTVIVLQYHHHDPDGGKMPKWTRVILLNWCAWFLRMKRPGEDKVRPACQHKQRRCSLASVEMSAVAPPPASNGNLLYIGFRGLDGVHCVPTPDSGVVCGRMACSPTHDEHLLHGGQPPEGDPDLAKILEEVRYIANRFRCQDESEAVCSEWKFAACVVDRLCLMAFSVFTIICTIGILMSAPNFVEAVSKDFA
- protocol.summary: Displacement of [125I]BTX from human alpha7 nicotinic acetylcholine receptor expressed in IMR32 cells
recorded.metric: Ki (nM)
Report the value in nM with no unit label.

Give its Ki value. Item: `Cc1ccc2oc(N3CCN4CCC3CC4)nc2n1`
16.4

* * *

For each of the compounds below, state its log10 of IC50.
- assayed.system: 5-hydroxytryptamine receptor 3A (Homo sapiens, UniProt P46098)
- Sequence (P46098 whole entry): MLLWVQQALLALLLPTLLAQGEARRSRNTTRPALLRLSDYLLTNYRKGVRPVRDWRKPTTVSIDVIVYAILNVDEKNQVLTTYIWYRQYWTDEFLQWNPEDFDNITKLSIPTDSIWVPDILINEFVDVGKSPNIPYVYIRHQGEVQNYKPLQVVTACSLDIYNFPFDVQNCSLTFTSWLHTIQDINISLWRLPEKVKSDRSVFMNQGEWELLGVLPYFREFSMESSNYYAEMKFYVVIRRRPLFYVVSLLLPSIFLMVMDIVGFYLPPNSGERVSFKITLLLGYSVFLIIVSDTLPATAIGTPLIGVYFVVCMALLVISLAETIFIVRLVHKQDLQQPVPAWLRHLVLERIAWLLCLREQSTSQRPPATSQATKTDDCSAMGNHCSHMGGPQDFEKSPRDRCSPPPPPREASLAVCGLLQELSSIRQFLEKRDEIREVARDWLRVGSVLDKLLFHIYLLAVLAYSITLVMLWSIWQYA
- protocol.summary: […] at human 5HT3 receptor expressed in human skin epithelial cells assessed as stimulation of calcium flux by FLIPR assay
A difference of one corresponds to tenfold IC50; all values are log10 with IC50 in nM.

Requested read-out log10 of IC50, target or system 5-hydroxytryptamine receptor 3A (Homo sapiens, UniProt P46098), entry `Clc1cnc2nc(N3CCN4CCC3CC4)oc2c1`
2.68

Requested read-out log10 of IC50, target or system 5-hydroxytryptamine receptor 3A (Homo sapiens, UniProt P46098), entry `Cc1ccc2oc(N3CCN4CCC3CC4)nc2n1`
0.70

Requested read-out log10 of IC50, target or system 5-hydroxytryptamine receptor 3A (Homo sapiens, UniProt P46098), entry `CCc1ccc2oc(N3CCN4CCC3CC4)nc2n1`
3.52

Requested read-out log10 of IC50, target or system 5-hydroxytryptamine receptor 3A (Homo sapiens, UniProt P46098), entry `Fc1cnc2nc(N3CCN4CCC3CC4)oc2c1`
3.39

Requested read-out log10 of IC50, target or system 5-hydroxytryptamine receptor 3A (Homo sapiens, UniProt P46098), entry `Brc1cnc2nc(N3CCN4CCC3CC4)oc2c1`
2.89

Requested read-out log10 of IC50, target or system 5-hydroxytryptamine receptor 3A (Homo sapiens, UniProt P46098), entry `Cc1nc2nc(N3CCN4CCC3CC4)oc2cc1Cl`
1.85
